We begin with a simple list: items and their reported selectivity ratio.
Experiment: Selectivity index, ratio of IC50 for human MRC5 cells to IC50 for human HCT-116 cells
Format: toxicity
Conditions: MRC5 cells versus HCT-116 cells, read-out: Ratio IC50

structure-smiles-string	selectivity ratio
COc1ccc2c(=O)c3cccc(C)oc=3c(=O)c2c1OC	2.9
COc1c(O)ccc2c(=O)c3cccc(C)oc=3c(=O)c12	3.1
